tested on: SF-295; assay: Cytotoxicity against Homo sapiens (human) SF295 assessed as cell growth at 10 uM after 48 hr by SRB assay relative to control; type: functional; conditions: SF-295, 48 h, read-out: Activity
RECORDED_METRIC: growth at 10 µM (%)
Quick note: give the figure in %, leave out the unit.

Check out these entries, answers already filled in.
In [3]: df
Out[3]:
                                   compound  recorded_value
0  Oc1c(-c2n[nH]c(=S)o2)sc2nnc(-c3ccccc3)c(-c3ccccc3)c12             112
1  CSc1nnc(-c2sc3nnc(-c4ccccc4)c(-c4ccccc4)c3c2O)o1            40.9
2  Oc1c(-c2nnc(-c3ccccc3)o2)sc2nnc(-c3ccccc3)c(-c3ccccc3)c12            42.9
3  CCOC(=O)c1c(Nc2ccc(S(=O)(=O)Nc3nccs3)cc2)nnc(-c2ccccc2)c1-c1ccccc1             101
4  CNc1nnc(-c2sc3nnc(-c4ccccc4)c(-c4ccccc4)c3c2O)s1            91.7
5  Oc1c(-c2nnc(-c3ccc(Cl)cc3)o2)sc2nnc(-c3ccccc3)c(-c3ccccc3)c12            23.5

CCOC(=O)c1c(Nc2ccc(S(N)(=O)=O)cc2)nnc(-c2ccccc2)c1-c1ccccc1 yielded growth at 10 µM of 88.5

The recorded growth at 10 µM for CC1=NN(C(=O)c2sc3nnc(-c4ccccc4)c(-c4ccccc4)c3c2O)C(=O)C1 is 48.8

Quick note, growth at 10 µM for CC(=O)Oc1c(C2=NN(C(C)=O)C(c3ccccc3[N+](=O)[O-])O2)sc2nnc(-c3ccccc3)c(-c3ccccc3)c12 (centres undefined) landed at 85
